# assay.protocol: plasma pharmacokinetics of gemcitabine in patients (phase 1b)
# condition.label: human, plasma, iv, C2, ng ml^−1 (s.d.), gemcitabine 1000 mg m^−2 i.v. in combination with motesanib 50 mg QD (week 2, day 1)
readout.kind: concentration at 2 h (µg/mL)

Nc1ccn([C@@H]2O[C@H](CO)[C@@H](O)C2(F)F)c(=O)n1
0.183

====

# assay.protocol: plasma pharmacokinetics of gemcitabine in patients (phase 1b)
# condition.label: human, plasma, iv, 1000 mg m^−2, AUC0–2, μg h ml^−1 (s.d.), gemcitabine 1000 mg m^−2 i.v. alone (week 1, day 1); motesanib 75 mg BID cohort
readout.kind: AUC(0-t) (ng·h/mL)

Nc1ccn([C@@H]2O[C@H](CO)[C@@H](O)C2(F)F)c(=O)n1
6270
